- assay.target: GALR1 (Homo sapiens)
- Construct: purchased Promega (in-house HiBiT-GPCR construct library, NanoBRET)
- Sequence (P47211 1-349): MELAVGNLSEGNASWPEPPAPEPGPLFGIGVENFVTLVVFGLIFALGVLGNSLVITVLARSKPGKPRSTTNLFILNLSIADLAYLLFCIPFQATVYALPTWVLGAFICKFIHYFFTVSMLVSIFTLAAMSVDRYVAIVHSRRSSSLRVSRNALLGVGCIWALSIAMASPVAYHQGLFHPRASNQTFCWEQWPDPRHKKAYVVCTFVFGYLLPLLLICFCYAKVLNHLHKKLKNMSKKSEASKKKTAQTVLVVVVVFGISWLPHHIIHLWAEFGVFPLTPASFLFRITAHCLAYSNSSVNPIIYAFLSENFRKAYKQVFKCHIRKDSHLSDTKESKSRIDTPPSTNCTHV
- test.method.notes: NanoBRET screen HiBiT-GALR1 in HEK293
- Assay type: binding
- assay.setup: GALR1; tracer 1μM
- Method: Each tracer candidate was screened across the entire library of HiBiT-GPCR constructs using NanoBRET as the detection modality. As depicted in Figure 4A, the specificity of interactions was evaluated through decrease in BRET due to competitive displacement of a bound tracer by excess parental compound. Each tracer was analyzed for binding to each HiBiT-GPCR fusion in the absence and in the presence of competing parental compound. […]
endpoint.name: NanoBRET Fold Response

compound	assay.target	NanoBRET Fold Response
N#CN=C(NCCCOc1cccc(CN2CCCCC2)c1)NCCNC(=O)CCOCCOCCOCCOCCNC(=O)CCc1ccc2n1[B-](F)(F)[N+]1=C(c3ccc[nH]3)C=CC1=C2 [Aminopotentidine-2-NB590]	GALR1 (Homo sapiens)	0.99
O=C(CCOCCOCCOCCOCCNC(=O)CCc1ccc2n1[B-](F)(F)[N+]1=C(c3ccc[nH]3)C=CC1=C2)NCCCN1CCN(C2=Nc3ccccc3Oc3ccc(Cl)cc32)CC1 [Loxapine-a-2-NB590]	GALR1 (Homo sapiens)	1.21

Now turn to the next compound.
Notebook: COc1ccccc1N1CCN(CCCCN2C(=O)c3ccc(CNC(=O)CCOCCNC(=O)c4ccc(CNC(=O)CCc5ccc6n5[B-](F)(F)[N+]5=C(c7ccc[nH]7)C=CC5=C6)cc4)cc3C2=O)CC1 [NAN-190-3-NB590] , NanoBRET Fold Response read as 0.99
